# system name: DLG1_2, Q12959
# Sequence (Q12959 314-412): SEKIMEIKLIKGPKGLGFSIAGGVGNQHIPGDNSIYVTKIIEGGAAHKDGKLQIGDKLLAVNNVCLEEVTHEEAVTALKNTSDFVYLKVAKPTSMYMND
# test description: holdup assay
# Set-up: key: below the threshold = too weak to quantify, mostly under pKd 3.1 to 4
# assay conditions: plain residues with an end cap or a label only (N-terminal biotin on a linker: ado-ado)
Task for the reader: assign each of the following binders its reported pKd.

The following binders have reported results that may help.
binder: PKRSFIESNV [TANC1, Q9C0D5]
pKd: 4.96
//
binder: QHKTQLQTLI [BPIFA2, Q96DR5]
pKd: 4.88

Switching to the query record.
For reference, reported pKd for TKGPRGPTRV [SAPCD1, Q5SSQ6] stands at 4.68
